Measured TGI, listed per entry.
- Tested on: SNB-19 CNS
- test-name: NCI tumour cell line growth inhibition, 48 h

Some solved entries appear below for comparison.
COC(=O)C(C(=O)Cc1ccccc1[N+](=O)[O-])C(=O)OC : > 100 µM
CN(C)c1ncnc2c1ncn2CCn1cnc2c(N(C)C)ncnc21 : > 100 µM
Oc1ccc2ccccc2c1N=Nc1ccc(Br)cc1 : > 100 µM
CN(C)CCNC(=O)c1cccc2ccc(-c3ccc(F)cc3)nc12 : 33.7 µM

Next:
Entry under test: CCOC1c2cc(C(C)C)c(O)c(O)c2[C@@]23CCCC(C)(C)C2C1OC3=O (stereo not given in full) . Its TGI was > 100 µM

---

- Test system: MDA-MB-435
- test-name: NCI tumour cell line growth inhibition, 48 h
Measured TGI, listed per entry.
Kindly answer with a numeric value in µM, unit omitted.

Some solved entries appear below for comparison.
Oc1cn(-c2ccc(Cl)cc2)nc1-c1n[nH]c(=S)n1-c1ccccc1 : 5.09
CN(C)CCSc1cc(-c2ccccc2)c2ccccc2n1 : 22.1
Cc1nc2ccc(F)cc2c2c1CCN2c1ccc(Cl)cc1 : 33.5

Short answer on MDA-MB-435 for COC1=C(Br)[C@H](O)[C@@]2(C=C1Br)CC(C(=O)NCCCOc1c(Br)cc(C(O)CNC(C)=O)cc1Br)=NO2 (stereo partly drawn) , TGI: 5.12

Short answer on MDA-MB-435 for O=C1c2ccccc2C(=O)c2c1nc1ccccc1c2-c1cncc(-c2c3c(nc4ccccc24)C(=O)c2ccccc2C3=O)c1 , TGI: 3.96

Short answer on MDA-MB-435 for C(=C\c1ccc(-c2cn3cc(/C=C/C=N/NC4=NCCN4)ccc3n2)cc1)/C=N/NC1=NCCN1 , TGI: 3.54

Short answer on MDA-MB-435 for COc1ccc(/C(=C\C=C(C#N)C#N)Sc2nc3ccccc3s2)cc1 , TGI: 18.5

---

- Test system: SN12C renal
- test-name: NCI tumour cell line growth inhibition, 48 h
quantity-kind: TGI (µM)
Kindly answer with a numeric value in µM, unit omitted.

Some solved entries appear below for comparison.
COC(C)(C)OCCN1CCN(CCN2C3=C(C=C(C(C)=O)C3)Sc3ccccc32)CC1 : 69.8
C=COC(=O)N[C@H]1CCc2cc(OC)c(OC)c(OC)c2-c2ccc(SC)c(=O)cc21 : 54.7
CN(C)CCSc1cc(-c2ccccc2)c2ccccc2n1 : 32.2

Entry under test: Oc1ccc(Nc2c3ccccc3nc3occ(Cl)c23)cc1 . Its TGI was 26.4

---

- Test system: SF-295 CNS
- test-name: NCI tumour cell line growth inhibition, 48 h
quantity-kind: TGI

CC1(C)OC[C@@H]([C@H](O)C2C=CC(=O)S2)O1 (stereo partly drawn) : > 100 µM
CC(C)(C)OC/C=C(/CO)[C@@H]1C=C[C@H](O)C1 : > 100 µM
COC(=O)c1nsc(OC)c1Cl : > 100 µM
CN(C)c1ccc(N=Nc2ccccn2)c(O)c1 : > 100 µM

Entry under test: O=C(CSc1c2ccccc2nc2ccccc12)Nc1ccccc1-c1ccccc1NC(=O)CSc1c2ccccc2nc2ccccc12 . Its TGI was > 81.2 µM

Entry under test: C[N+](C)(C)CC1CCC/C1=N\OC(=O)c1ccccc1 (stereo not drawn) . Its TGI was > 100 µM

Entry under test: CC1CN=C(N(C(=O)Nc2ccccc2)c2ccc(Cl)c(Cl)c2)S1 (stereo not drawn) . Its TGI was > 100 µM

---

- Tested on: MALME-3M melanoma
- test-name: NCI tumour cell line growth inhibition, 48 h
quantity-kind: TGI

Some solved entries appear below for comparison.
CN(C)c1ncnc2c1ncn2CCn1cnc2c(N(C)C)ncnc21 : > 100 µM
CS(=O)(=O)Nc1cc(-c2ccc3ncnc(Nc4c(Cl)ccc5c4OCO5)c3c2)cnc1Cl : 0.515 µM
COc1ccc2c(c1)CCCN2CCCCCCCCCCN(CCC(C)C)CCC(C)C : 28.1 µM
O=[N+]([O-])c1ccc(-c2cnc3ccccn23)cc1 : > 100 µM
C[C@]12CCC(=O)C=C1CC[C@@H]1C2CC[C@]2(C)Nc3[nH]ncc3CC12 (some centres undefined) : > 100 µM

Short answer on MALME-3M melanoma for BrCc1cccc(C[P+](c2ccccc2)(c2ccccc2)c2ccccc2)c1 , TGI: > 100 µM

Short answer on MALME-3M melanoma for CC(=O)N1CCC(=O)/C(=C/c2ccccc2)C1 , TGI: > 100 µM

Short answer on MALME-3M melanoma for COC(=O)c1ccc(-c2c(C#N)[n+](=O)c3cc(Cl)c(Cl)cc3n2[O-])cc1 , TGI: 44.3 µM

Short answer on MALME-3M melanoma for C=CCN(C(=O)CNC(=O)C(F)(F)F)c1cc(OCc2ccccc2)c2c(c1)c(C)cn2S(=O)(=O)c1ccccc1 , TGI: > 100 µM

Short answer on MALME-3M melanoma for O=c1oc2c/c(=C\c3ccc([N+](=O)[O-])cc3)c(=O)c3cccc1c3-2 , TGI: > 100 µM

Short answer on MALME-3M melanoma for C=CCC1(CN(C)C)CC/C(=C\c2ccc(Cl)cc2)C1=O (centres undefined) , TGI: > 100 µM

---

- Tested on: UACC-257 melanoma
- test-name: NCI tumour cell line growth inhibition, 48 h; in the data active = GI50 below about 0.43 µM; inactive = the rest
Respond using exactly one of the listed classes: true for active, false for inactive

Consider the worked cases shown below.
O=C(NNc1ccccc1)C(=O)NNc1ccccc1 : false
CC1(Br)Cc2ccccc2C1=O (centres undefined) : false
C#Cc1nc(Nc2cc(C)[nH]n2)c2ccccc2n1 : true
CC1(C)N=C(N)N=C(N)N1c1ccc(CCCCc2ccc(Cl)c(S(=O)(=O)F)c2)c(Cl)c1 : false
COc1ccc(-c2nnc(N3CCN(C(=O)CN4CCN(c5ccccc5)CC4)CC3)nc2-c2ccc(OC)cc2)cc1 : false
COc1cccc2c1C(=O)c1c(O)c3c(c(O)c1C2=O)C[C@@](O)(/C(C)=N/NC(=O)c1ccc(Cl)cc1)C[C@@H]3OC1CC(N)C(O)C(C)O1 (some centres undefined) : true

**Query** So what was the verdict on Cc1nc2cc(Nc3nc(Nc4ccc(F)cc4)nc(-c4cccs4)n3)ccc2n1Cc1ccccc1 in this test?
**Result** false

**Query** So what was the verdict on COC(=O)c1ccc(-c2c(C#N)[n+](=O)c3cc(Cl)c(Cl)cc3n2[O-])cc1 in this test?
**Result** false

**Query** So what was the verdict on BrCc1cccc(C[P+](c2ccccc2)(c2ccccc2)c2ccccc2)c1 in this test?
**Result** false

---

- Tested on: SW-620 colon
- test-name: NCI tumour cell line growth inhibition, 48 h
quantity-kind: GI50

C[C@@]12CCC[C@@](C)(C(=O)O)C1CC[C@]13CC(=O)[C@](CO)(C1)[C@@H](O)CC32 (stereo partly specified) : > 100000 nM
CS(=O)(=O)Nc1cc(-c2ccc3ncnc(Nc4c(Cl)ccc5c4OCO5)c3c2)cnc1Cl : 327 nM
O=C1CCC/C=C\C[C@H]2C=CC(=O)/C2=C/C[C@H](C/C=C\CC(F)(F)F)O1 : 508 nM

Next:
Entry under test: Cc1ccc2c(C3C(C#N)=C(N)Oc4cc5ccccc5cc43)cc(=O)oc2c1 (stereo unspecified) . Its GI50 was 736 nM

---

- System: SK-MEL-2 melanoma
- test-name: NCI tumour cell line growth inhibition, 48 h; in the data active = GI50 below about 0.43 µM; inactive = the rest
Respond using exactly one of the listed classes: yes (1) = active, no (0) = inactive

C/C(=N\NC(=S)N1CCCCCC1)c1ccccn1 : yes (1)
CC(C)OC(=O)[C@H](C)NP(=O)(OC[C@H]1O[C@@H](n2ccc(=O)[nH]c2=O)[C@](C)(F)[C@@H]1O)Oc1ccccc1 (some centres undefined) : no (0)
CN(C)c1ccc(N=Nc2ccccn2)c(O)c1 : no (0)

**Query** So what was the verdict on CN1CC[C@@H](c2c(O)cc(O)c3c(=O)cc(-c4ccc(C(F)(F)F)cc4Cl)oc23)[C@@H]1CO in this test?
**Result** no (0)

**Query** So what was the verdict on O=C(Nc1cc(C(F)(F)F)ccc1Cl)c1cccc(NC2=C(Cl)C(=O)N(Cc3ccccc3)C2=O)c1 in this test?
**Result** no (0)

**Query** So what was the verdict on Cc1nc2cc(Nc3nc(Nc4ccc(F)cc4)nc(-c4cccs4)n3)ccc2n1Cc1ccccc1 in this test?
**Result** no (0)

**Query** So what was the verdict on O=[P@@]1(c2ccccc2)O[C@H](COCc2ccccc2)[C@@H](OCc2ccccc2)[C@H](OCc2ccccc2)[C@H]1NCc1ccccc1 in this test?
**Result** no (0)

**Query** So what was the verdict on O=C1c2cccc3cccc(c23)C(=O)N1CCCCCN1CCN(CCCCCOc2ccc(-c3nc4ccc(N5CCOCC5)cc4[nH]3)cc2)CC1 in this test?
**Result** no (0)

**Query** So what was the verdict on Clc1nc(Cl)nc(Nc2cccc3ccccc23)n1 in this test?
**Result** no (0)

Data provenance: PubChem BioAssay (NCI)
